experiment: small-molecule binders of probe aLefty1, primary screen, biochemical, small-molecule microarray, 635/667 nm fluorescence (AID 1153); conditions: higher = more signal;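 also: score merges spot fluorescence with signal-to-noise ratio from the scanned slide images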
VALUE_TYPE: composite z-score

molecule=O=C(CS)NCCCCCCNC(=O)[C@@H]1C[C@@H]2C(=O)N[C@@H](Cc3ccccc3)C(=O)N2[C@@H]1c1cccc(OCCO)c1 value_type="composite z-score" endpoint_result=-0.073
molecule=COC(=O)C(CC#Cc1ccc2c(c1)[C@]1(C(=O)N2)[C@H](c2ccc(OCCO)cc2)N2[C@H](c3ccccc3)[C@H](c3ccccc3)OC(=O)[C@H]2[C@@H]1C(=O)Nc1nc2ccccc2s1)C(=O)OC value_type="composite z-score" endpoint_result=-0.0611
molecule=C=C(C(=O)CC[C@@H](OC(=O)c1cccnc1)c1ccccc1OCCO)C(C)C value_type="composite z-score" endpoint_result=0.106
molecule="CC(C)C(O)C1C=CC2C(=O)NC(=O)C2N1Nc1ccc(Cl)cc1Cl (centres undefined)" value_type="composite z-score" endpoint_result=-0.114

* * *

target: Calmodulin-1 (Homo sapiens); assay: CALM1 binders on microarrays, EGTA buffer, profiling panel, biochemical, small-molecule microarray, Cy5-labelled CALM1 (AID 1111); conditions: Cy5-CALM1 binding fluorescence, higher = more signal;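 also: labelled calmodulin applied in Tris saline Tween buffer holding calcium plus EGTA and DTT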
VALUE_TYPE: composite z-score

compound="CC1CC/C=C\\[C@H]2OC34C=CCN(Cc5ccccc5)C(=O)[C@H]3N(CCCO)C(=O)[C@@H]4C2C(=O)O1 (some centres not stated)" value_type="composite z-score" endpoint_result=-0.226
compound=C[C@@]1([C@@H](NC(=O)c2ccc(-c3ccccc3)cc2)c2ccc(Cl)cc2)C[C@H]1C1CCCCC1 value_type="composite z-score" endpoint_result=1.42
compound=COc1ccc(C#Cc2ccc3c(c2)[C@]2(C(=O)N3)[C@H](C(=O)Nc3nc4ccccc4s3)[C@H]3C(=O)O[C@H](c4ccccc4)[C@H](c4ccccc4)N3[C@@H]2c2ccc(O)cc2)cc1 value_type="composite z-score" endpoint_result=1.7
compound=C=C(/C(=C/C[C@H](OC(C)=O)c1ccc(CO)o1)c1cc(C(=O)OC)ccc1OC)C(C)C value_type="composite z-score" endpoint_result=-0.0278
compound=O=C1c2ccccc2[C@](Cc2ccccc2I)(C(=O)NCCN2CCOCC2)[C@H](c2ccc(CO)cc2)N1Cc1ccccc1Cl value_type="composite z-score" endpoint_result=1.51
compound=O=C1N(Cc2ccccc2)c2ccccc2[C@@H]2OC(c3ccc(OCCCO)cc3)=N[C@]12CCS(=O)(=O)c1ccccc1 value_type="composite z-score" endpoint_result=1.61
compound=COC(=O)[C@@]1(Cc2ccc(F)cc2)[C@H]2c3cc(C(=O)N(C)C)n(Cc4ccccc4)c3C[C@H]2CN1C(=O)c1ccccc1 value_type="composite z-score" endpoint_result=1.11

* * *

target: Fibroblast growth factor 2 (Homo sapiens) (UniProt P09038); assay: FGF2 binders on small-molecule microarrays, primary screen, biochemical, small-molecule microarray, 635/667 nm fluorescence (AID 1133); conditions: small-molecule microarray binding, FGF2, fluorescence 635/667; higher = more signal
Sequence (P09038 whole entry, looked up): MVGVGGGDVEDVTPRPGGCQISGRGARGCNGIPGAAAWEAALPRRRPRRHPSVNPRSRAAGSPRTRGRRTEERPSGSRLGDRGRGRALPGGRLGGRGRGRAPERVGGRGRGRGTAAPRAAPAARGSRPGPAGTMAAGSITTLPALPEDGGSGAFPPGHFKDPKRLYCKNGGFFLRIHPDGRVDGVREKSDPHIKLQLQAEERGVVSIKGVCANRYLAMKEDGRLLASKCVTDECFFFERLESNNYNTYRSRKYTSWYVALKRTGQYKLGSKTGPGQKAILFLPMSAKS
VALUE_TYPE: composite z-score

compound=C=CCOC(=O)[C@H]1[C@@H]2C(=O)O[C@@H](c3ccccc3)[C@@H](c3ccccc3)N2[C@@H](c2ccc(OCCOC(=O)[C@@H]3C[C@@H]4C(=O)N[C@@H](CCCCNC(C)=O)C(=O)N4[C@@H]3c3ccc(O)cc3)cc2)[C@]12C(=O)Nc1ccccc12 endpoint_result=1.49
compound="COc1cc2c(cc1O)C(c1cccs1)N(C)CC2 (stereo not drawn)" endpoint_result=-0.0571
compound=COCCOC(=O)N1C(=O)[C@@]2(c3cc(C#CCNC(N)=O)ccc31)[C@H](C(=O)Nc1nc3ccccc3s1)[C@H]1C(=O)O[C@H](c3ccccc3)[C@H](c3ccccc3)N1[C@@H]2c1ccc(OCCO)cc1 endpoint_result=1.08
compound=CCOC(=O)C[C@H]1[C@H](OC(=O)c2ccc(C(=O)c3ccccc3)cc2)[C@@H](NC(=O)c2ccccc2)c2cc(OCCCO)ccc2N1C(=O)Cc1ccc(OC)cc1 endpoint_result=-0.358
compound="CN1C=C(C(=O)OCCS(C)(=O)=O)C(C(=O)OCCS(C)(=O)=O)=CC(c2ccc(CO)cc2)=CC1C1CC1 (stereo not drawn)" endpoint_result=-0.101
compound=COCCOC(=O)N1C(=O)[C@@]2(c3cc(C#CCC(C(=O)OC)C(=O)OC)ccc31)[C@H](C(=O)N1CCN(c3ncccn3)CC1)[C@H]1C(=O)O[C@H](c3ccccc3)[C@H](c3ccccc3)N1[C@@H]2c1ccccc1OCCO endpoint_result=1.29
compound=COC(=O)[C@@]1(Cc2ccc(OC)cc2)[C@H]2c3cc(C(=O)N4CCCC4)n(Cc4ccc(C)c(F)c4F)c3C[C@H]2CN1C(=O)c1ccccc1 endpoint_result=-0.294
compound=CC(C)NC(=O)[C@@]1(C)c2ccccc2C(=O)N(Cc2cc(C(F)(F)F)cc(C(F)(F)F)c2)[C@H]1c1ccc(CO)cc1 endpoint_result=-0.741
compound=CC(C)C[C@@H]1NC(=O)[C@@H]2C[C@H](C(=O)NCc3ccc(F)cc3)[C@H](c3cccc(OCCO)c3)N2C1=O endpoint_result=1.46
compound=O=C(CS)NCCCCCCNC(=O)[C@@H]1C[C@@H]2C(=O)NCC(=O)N2[C@@H]1c1cccc(OCCO)c1 endpoint_result=1.4
compound=COc1ccc(-c2cc3c(c(-c4ccc(Oc5ccccc5)cc4)n2)[Si](C(C)C)(C(C)C)OC3)cn1 endpoint_result=-0.224
compound="O=C1OCCC/C=C\\[C@H]2OC34C=CCN(Cc5ccccc5)C(=O)[C@H]3N(CCCO)C(=O)[C@@H]4C12 (stereo partly drawn)" endpoint_result=-1.08
compound=COC(=O)[C@@]1(Cc2ccc(OC)cc2)[C@H]2c3cc(C(=O)N(C)C)n(C)c3C[C@H]2CN1C(=O)c1ccccc1 endpoint_result=0.0022
